src = PubChem BioAssay (NCI)

Tested on: K-562 leukemia
PROTOCOL DESCRIPTION: NCI tumour cell line growth inhibition, 48 h
Measured TGI, listed per entry for reference.

Previously resolved entries follow.
COMPOUND: CCCCCCCCCCCCNC(=O)[C@H]1CSC(c2cc3ccccc3s2)N1 (stereo partly specified)
TGI: 1.62 µM
//
COMPOUND: CC(C)C1C(=O)NC(CO)Cc2c[nH]c3c(C(c4c[nH]c5ccccc45)C(O)CO)ccc(c23)N1C (stereo unspecified)
TGI: > 100 µM
//
COMPOUND: CN(C)c1ncnc2c1Cc1ccccc1C(=O)N2C
TGI: > 100 µM
//
COMPOUND: O=C1Nc2cc(Cl)ccc2N=CC1NC(=O)C(c1ccccc1)c1ccccc1Cl (stereo unspecified)
TGI: > 100 µM

The compound listed as CC1CN(c2ccc(Cl)cc2)CC(C)(C)OC(=O)O1 (stereo unspecified) shows TGI equal to > 100 µM

The compound listed as C=CC(CBr)CCC(Br)C(C)(C)Br (stereo unspecified) shows TGI equal to > 10 µM

The compound listed as "Cn1cc(-c2csc(-c3cn(C)c4ccc(Br)cc34)n2)c2cnccc21" shows TGI equal to 0.563 µM

The compound listed as "O=c1cc(-c2ccccc2)oc2cc(OCC(O)COc3ccc4c(=O)cc(-c5ccccc5)oc4c3)ccc12" shows TGI equal to > 100 µM

The compound listed as "Fc1ccc(-c2nn3c(CNc4ccccc4)nnc3s2)cc1" shows TGI equal to > 100 µM

The compound listed as "O=C(NCCO)c1cc2c(cn1)[nH]c1ccccc12" shows TGI equal to > 100 µM

The compound listed as "NCCCCCCCCn1c2c(c3ccccc3c1=O)C(=O)c1ccccc1-2" shows TGI equal to 3.67 µM

----------
Measured TGI, listed per entry for reference.
System: SF-295 CNS
PROTOCOL DESCRIPTION: NCI tumour cell line growth inhibition, 48 h

Previously resolved entries follow.
COMPOUND: O=C(CSc1nc2ccccc2nc1-c1ccccc1)Nc1ccc(Cl)cc1
TGI: 85.1 µM
--
COMPOUND: CC1(C)Oc2ccc3c(=O)c(-c4ccccc4)c(-c4ccccc4)oc3c2C1C(=O)O (stereo unspecified)
TGI: > 100 µM
--
COMPOUND: c1ccc(N=C(N2CCOCC2)N(CCN2CCOCC2)c2ccccc2)cc1
TGI: > 100 µM
--
COMPOUND: COc1ccc2c(c1)CCN=C2Cc1ccccc1CCCl
TGI: > 100 µM

The compound listed as "Cc1c(-c2ccccc2)c(=O)oc2ccc(Cl)cc12" shows TGI equal to > 100 µM

The compound listed as "CCCCC(C(=O)N/N=C/c1ccc([N+](=O)[O-])o1)C(=O)N/N=C/c1ccc([N+](=O)[O-])o1" shows TGI equal to 31.4 µM

The compound listed as NC(=O)NC(=O)CCC(NS(=O)(=O)c1ccccc1)C(=O)NC(N)=O (stereo unspecified) shows TGI equal to > 100 µM

The compound listed as "Cc1cccc(-c2nn3c(c2-c2ccnc4ccc(C(N)=O)cc24)CCC3)n1" shows TGI equal to > 100 µM

----------
Measured TGI, listed per entry for reference.
Test system: HOP-62 NSCLC
PROTOCOL DESCRIPTION: NCI tumour cell line growth inhibition, 48 h
Expressed in µM, but write only the number.

Previously resolved entries follow.
MOLECULE: Cc1cccc(O)c1-c1nnc(CCCCCCCCc2nnc(-c3c(C)cccc3O)n2N)n1N
TGI [µM]: 62
//
MOLECULE: Cc1nc2c(O)cc3c4c(=O)n(C)c(=O)n(C)c4n(Cc4ccccc4)c3c2nc1C
TGI [µM]: 33.6
//
MOLECULE: C=C1C(=O)OC2/C=C(\C)C3OC3/C=C(/C(=O)OC)C(O)C(OC(=O)C3(C)OC3C)C12 (stereo not drawn)
TGI [µM]: 35.8

Let's switch to this molecule now.
The molecule listed as "CCCOc1ccc(-c2nc(-c3ccc(N=Cc4ccc(N(CCOS(C)(=O)=O)CCOS(C)(=O)=O)cc4C)cc3)cs2)cc1" shows TGI equal to 43.7
